Entries and their measured self-cleavage follow.
B1: CPEB3 Ribozyme (parent)
chain: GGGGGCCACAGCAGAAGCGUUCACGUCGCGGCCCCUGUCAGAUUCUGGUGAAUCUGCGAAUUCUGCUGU

Variants of: B1
measurementProtocol: self-cleavage, relative activity (ratio to wild type); higher = more cleavage; co-transcriptional
The answer should be written as a number, with no unit following it.

The following variants have reported results that may help.
{"columns": ["variantNotation", "self-cleavage"],
 "data": [
  ["C7A A60C", 0.152],
  ["G5U A8C", 0.346],
  ["G3C A52G", 0.0775],
  ["G48C U53C", 0.96],
  ["C22G G68U", 0.197],
  ["C54G A59G", 0.957],
  ["C22U G47U", 0.37],
  ["G5A U64A", 0.71]
]}

-- ask Look up self-cleavage: C24A A42G
-- reply 0.53

-- ask Look up self-cleavage: C12A U21A
-- reply 0.642

-- ask Look up self-cleavage: G31C C45U
-- reply 0.263

-- ask Look up self-cleavage: U20A U64C
-- reply 0.122

-- ask Look up self-cleavage: C6G C32A
-- reply 0.0685
